- experimental-protocol: CCTE_Shafer_MEA_acute_per_network_burst_spike_number_std: CCTE's Neural Acute Assay for Standard Deviation of Number of Spikes in a Network Burst, Shafer Lab (AID 2284020);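 note: fitted for decrease in spike-number SD versus DMSO so actives lower it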
Activity calls are given as the source filed them. Rule for the calls: active = hit-call score of the fitted dose curve at least 0.9, where 1 is the maximum; inactive = score below 0.9.
Tick one outcome: T = active, F = inactive

Worked set:
[
  {
    "compound": "CC1(C)C(C=C(Cl)Cl)C1C(=O)OC(C#N)c1cccc(Oc2ccccc2)c1 (configuration not stated)",
    "class-name": "F"
  },
  {
    "compound": "Cc1c(COC(=O)[C@@H]2[C@H](/C=C(\\Cl)C(F)(F)F)C2(C)C)cccc1-c1ccccc1",
    "class-name": "T"
  },
  {
    "compound": "COC(=O)N(C(=O)N1CO[C@@]2(C(=O)OC)Cc3cc(Cl)ccc3C2=N1)c1ccc(OC(F)(F)F)cc1",
    "class-name": "F"
  },
  {
    "compound": "N#Cc1c[nH]cc1-c1cccc2c1OC(F)(F)O2",
    "class-name": "T"
  },
  {
    "compound": "CCOc1nc(F)cc2nc(S(=O)(=O)Nc3c(Cl)cccc3Cl)nn12",
    "class-name": "F"
  }
]

Dear all, I need the recorded test outcome for C=C(C)CN(CC)c1c([N+](=O)[O-])cc(C(F)(F)F)cc1[N+](=O)[O-] , thank you.
F

Dear all, I need the recorded test outcome for CCOP(=O)(OCC)Oc1nc(Cl)c(Cl)cc1Cl , thank you.
F
